The measured values listed here are drawn from PubChem BioAssay (NCI).

System: SK-MEL-5 melanoma
Test: NCI tumour cell line growth inhibition, 48 h; in the data active = GI50 below about 0.43 µM; inactive = the rest
Labels: active, inactive

# compound_smiles, classification
records = [
    ("O=C(c1ccco1)c1c(C(F)(F)F)n([O-])c2ccc(C(F)(F)F)cc2[n+]1=O", "inactive"),
    ("COc1ccc(-c2nn(-c3cccc(Cl)c3)cc2-c2cc(-c3ccccc3)[nH]c(=O)c2C#N)cc1", "inactive"),
    ("ClCCN(CCCl)c1ccc(CNc2ccccc2)cc1", "inactive"),
    ("N=C(N)c1ccc(-c2ccc(-c3cccs3)s2)cc1", "inactive"),
    ("COc1cc2cc(Oc3ccc(NC(=O)c4cc(C(F)(F)F)cc(C(F)(F)F)c4)cc3)c(C)nc2cc1OC", "inactive"),
    ("CCc1ccc2c(c1)C(=O)c1c-2n(CCCN=[N+]=[N-])c(=O)c2cc([N+](=O)[O-])ccc12", "inactive"),
    ("COc1ccc(-c2cnnn2-c2nonc2-n2cccc2)cc1", "active"),
    ("O=C(NCc1ccc(Cn2c(=O)sn(-c3ccccc3)c2=O)cc1)OCc1ccc2cccc(O)c2n1", "inactive"),
    ("O=C(O)c1cccc(COc2ccc([N+](=O)[O-])cc2Cl)c1", "inactive"),
    ("Cc1cc(N/N=C/c2ccccn2)nc2ccccc12", "active"),
]
